biological target: hGLP-1R (Homo sapiens, UniProt P43220); assay: Functional cAMP activity in the presence of 1% HSA; assay type: cell-based; conditions: read-out: cAMP Rel EC50, hGLP-1R
Sequence (P43220 24-463): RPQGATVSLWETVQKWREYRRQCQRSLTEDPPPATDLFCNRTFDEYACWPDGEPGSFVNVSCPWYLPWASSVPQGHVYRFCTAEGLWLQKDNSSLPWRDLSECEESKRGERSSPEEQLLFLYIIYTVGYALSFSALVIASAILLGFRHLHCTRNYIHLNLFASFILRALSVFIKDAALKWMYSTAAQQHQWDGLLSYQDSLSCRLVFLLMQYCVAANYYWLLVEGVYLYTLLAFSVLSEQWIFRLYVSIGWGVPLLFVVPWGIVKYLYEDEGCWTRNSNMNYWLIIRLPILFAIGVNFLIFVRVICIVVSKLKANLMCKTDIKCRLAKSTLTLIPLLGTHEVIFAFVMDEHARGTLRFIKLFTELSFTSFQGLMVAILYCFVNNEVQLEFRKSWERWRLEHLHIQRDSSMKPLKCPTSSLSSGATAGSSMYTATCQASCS
Starred links: 1 amine or outer side, 2 acyl side, 3 side chain; linkers in the order of their positions; H or OH if unused. Non-standard residues stand in square brackets, D forms with d. Groups on a side chain read outwards from the residue. *: point of attachment. C18 diacid = O=C(O)CCCCCCCCCCCCCCCCC(=O)*; αMePhe(2-F) = C[C@](N)(Cc1ccccc1F)C(=O)O; γGlu = O=C(O)[C@H](CCC(=O)[*:2])N[*:1]; αMe4Pal = C[C@](N)(Cc1ccncc1)C(=O)O; αMeY = C[C@](N)(Cc1ccc(O)cc1)C(=O)O; 4Pal = N[C@@H](Cc1ccncc1)C(=O)O; αMeL = CC(C)C[C@](C)(N)C(=O)O; αMeS = C[C@](N)(CO)C(=O)O; Orn = NCCC[C@H](N)C(=O)O; Dap = NC[C@H](N)C(=O)O; AEEA = NCCOCCOCC(=O)O; Aib = CC(C)(N)C(=O)O
property: log10(EC50) (log10 of the value in µM)
Short version: log10 scale, EC50, µM.

{"substance": "H-Y[Aib]QGT[αMePhe(2-F)]TSD[4Pal][αMeS]I[αMeL]LD[Orn]K([AEEA-γGlu-C18 diacid])AA[Aib]EFI[dE][αMeY]LIEGGPSSGAPPPSGTEE-NH2 [Example 725]", "property": "log10(EC50)", "reported-value": -1.54}
{"substance": "H-Y[Aib]QGTFTSDFS[Dap][αMeL]LDKK([γGlu-γGlu-C18 diacid])AQ[Aib]AFIEYLLE[Aib]GPSSGAPPPSGS-NH2 [Example 203]", "property": "log10(EC50)", "reported-value": -0.27}
{"substance": "H-Y[Aib]QGTFTSD[4Pal]SQ[αMeL]LD[Orn]K([dE-γGlu-C18 diacid])AQ[αMe4Pal]AFIE[αMeY]LLAGGPSSGAPPPSGSEEE-NH2 [Example 1082]", "property": "log10(EC50)", "reported-value": -0.17}
{"substance": "H-Y[Aib]QGTFTSD[4Pal]SQ[αMeL]LDKK([Glu-γGlu-C18 diacid])AQ[αMe4Pal]AFIEYLIE[Aib]GPSSGAPPPSGS-NH2 [Example 894]", "property": "log10(EC50)", "reported-value": -0.15}

Here is another substance to look at.
Data request: Missing value: log10(EC50), hGLP-1R (Homo sapiens, UniProt P43220), entry H-Y[Aib]QGTFTSDFS[Orn][αMeL]LDKK([AEEA-γGlu-C18 diacid])AQ[αMe4Pal]EFIEYLIE[Aib]GPSSGAPPPSGS-NH2 [Example 879] . Fill in?
Data returned: -0.23
